- Tested on: 786-0
- Protocol Description: NCI tumour cell line growth inhibition, 48 h
The source made the active and inactive calls. No stated cut-off is given here; in the data, active = GI50 up to about 1.1 µM and inactive = higher.
Hi! Could you answer with just one of these? active, inactive

Examples from the recorded data:
INSERT INTO measurements (compound, assigned_label) VALUES
  ('COc1ccc(/C=C/C(=O)Oc2ccc(/C=C3\CCCCC3=O)cc2)cc1', 'inactive'),
  ('O=C1C=C(Nc2ccc(S(=O)(=O)Nc3ncccn3)cc2)c2ccccc2C1=O', 'inactive'),
  ('N#Cc1c(-c2ccc(Cl)cc2)cc(-c2ccc(Nc3ccnc4cc(Cl)ccc34)cc2)nc1N', 'inactive'),
  ('NC1CC(=O)c2sccc21 (centres undefined)', 'inactive'),
  ('Cn1cnnc1Sc1c([N+](=O)[O-])ncn1C', 'inactive'),
  ('Cc1ccc2c(sc(-c3ccc4c(c3)sc(-c3ccc(N(C)C)cc3)[n+]4C)[n+]2C)c1S(=O)(=O)O.Cc1ccc2c(sc(-c3ccc4c(c3)sc(-c3ccc5c(c3)sc(-c3ccc(N(C)C)cc3)[n+]5C)[n+]4C)[n+]2C)c1S(=O)(=O)O', 'inactive'),
  ('O=C(COC(c1ccc(F)cc1)c1ccc(F)cc1)N1CCN(CCCc2ccccc2)CC1', 'inactive'),
  ('C1=N\c2ccc(cc2)/N=C\c2ccc(cc2)OCc2cccc(n2)COc2ccc/1cc2', 'inactive');

Please share the test call associated with COc1cc(C2c3[nH]c4ccccc4c3C[C@H]3COC(=O)N23)cc(OC)c1OC (some centres undefined) . active

* * *

- Test system: MDA-MB-231
- Protocol Description: NCI tumour cell line growth inhibition, 48 h
Active and inactive are the calls of the source. No stated cut-off is given here; in the data, active = GI50 up to about 1.1 µM and inactive = higher.
A correct response names exactly one class from y (active), n (inactive)

INSERT INTO assay_data (compound, assigned_label) VALUES
  ('C=CCN(C(=O)CNC(=O)C(F)(F)F)c1cc(OCc2ccccc2)c2c(c1)c(C)cn2S(=O)(=O)c1ccccc1', 'n');

Test call, this compound: COc1ccc(C(=C(Cl)c2ccccc2)c2ccc(OC)cc2)cc1 n

Input CN(CCCNC(=O)c1nn(-c2ccc(Cl)cc2Cl)c2c1Cc1ccccc1-2)CCCNC(=O)c1nn(-c2ccc(Cl)cc2Cl)c2c1Cc1ccccc1-2 n

Also CCCc1nc(Cl)nc(Cl)c1Cl , if possible. y

Same for COc1c(OC(C)C)c(OC(C)C)c2oc(=O)n3c2c1C(c1ccccc1-n1c(C)ccc1C)C=C3 (stereo not drawn) n

Next record, please: CN(C)Cc1c[nH]c2ncnc(O)c12 n

Request: Cc1ccc(S(=O)(=O)N/N=C2/C3CC4CCC2C4C3)cc1 (stereo not drawn) n

Next compound: SC1=NNC2(C(S)=N1)c1ccccc1-c1ccccc12 n

* * *

- Tested on: OVCAR-3
- Protocol Description: NCI tumour cell line growth inhibition, 48 h
The source made the active and inactive calls. Cut-off read from the data, not from the text of the source: active = GI50 up to about 1.1 µM and inactive = higher.
I would appreciate it if you answered using one of these outcomes: Yes for active, No for inactive

Worked set:
INSERT INTO assay_data (compound, assigned_label) VALUES
  ('CC1OC(OC2C(OC3CCC4(C)C(CCC5(C)C4CC=C4C6CC(C)(C)CCC6(C(=O)O)CCC45C)C3(C)CO)OCC(O)C2O)C(O)C(O)C1O (centres undefined)', 'No'),
  ('COC(=O)C1=CO[C@@H](OC2CC(CO)C(O)C(O)C2O)[C@@H]2[C@@H](C)[C@@H](OC(=O)/C=C/c3ccccc3)[C@@H](O)[C@H]12.COC(=O)C1=CO[C@@H](OC2CC(CO)C(O)C(O)C2O)[C@@H]2[C@@H](C)[C@@H](OC(=O)c3ccccc3)[C@@H](O)[C@H]12 (some centres undefined)', 'No'),
  ('N=C(N)SCc1cccc([N+](=O)[O-])c1', 'No'),
  ('CCc1cc2c(c3c1CCCC3=O)CC1(C2)Cc2cc(CC)c3c(c2C1)C(=O)CCC3', 'No'),
  ('COc1ccc([S+]([O-])Cc2cc(OC)ccc2OC)cc1 (centres undefined)', 'No');

# lookup: test call for COP(=O)(Cc1ccc(/C=C/C#N)o1)OC No

Let us now turn to C[C@H]1OC(=O)[C@@H]2N=NN(Cc3ccccc3)[C@H]12 No

Next entry: O=c1[nH]nc(-c2ccccc2)c(-c2ccccc2)c1-n1nc(-c2ccccc2)c2ccccc2c1=O No

Now this one: O=c1c2ccccc2oc2c1ccc1ncccc12 No

Ok, now CN(C)C(=O)C(F)(F)C(c1ccccc1)C1C(=O)N(C)C(=O)N(C)C1=O (centres undefined) No

Same read-out for N#CC(C(=O)/C(=N/NC(=O)c1ccccc1O)C(C#N)c1ccc(Cl)cc1)c1ccc(Cl)cc1 (centres undefined) ? No

How about this compound: O=[N+]([O-])c1cccc2nc3ccccc3c(NCCO)c12 Yes

Follow-up entry: Cc1ccc(S(=O)(=O)N/N=C2/C3CC4CCC2C4C3)cc1 (centres undefined) No

Please answer likewise for O=C(Nc1cccc([N+](=O)[O-])c1)/C(=N\NC(=O)c1ccncc1)c1nc2ccc([N+](=O)[O-])cc2nc1O No
